- assay target: T1, FIXa-SM (FIXa+EGR-CMK) (human, UniProt P00740 47-191; P00740 227-461, EGR-CMK (L-Glu-Gly-Arg chloromethyl ketone) covalently bound to the active site)
- T1 construct: BLI antigen bought from Haematologic Technologies (HCIXA-EGR); also called FIXa with substrate mimic
- assay details: BLI; class meaning: paragraph 914
measure name: binding result

BIIB-9-1274 (antibody, V domains shown, IgG) VH: QVQLVQSGAEVKKPGASVKVSCKASGYTFTSYYMHWVRQAPGQGLEWMGIINPSGGSTSYAQKFQGRVTMTRDTSTSTVYMELSSLRSEDTAVYYCARDTGGYAFDIWGQGTLVTVSS VL: DIQMTQSPSSVSASVGDRVTITCRASQGISSWLAWYQQKPGKAPKLLIYAASSLQSGVPSRFSGSGSGTDFTLTISSLQPEDFATYYCQQANSFPFTFGGGTKVEIK ... binds
BIIB-9-470 (antibody, V domains shown, IgG) VH: EVQLVESGGGLVQPGGSLRLSCAASGFTFSSYWMSWVRQAPGKGLEWVANIKQDGSEKYYVDSVKGRFTISRDNAKNSLYLQMNSLRAEDTAVYYCARDAGIAWALDYWGQGTLVTVS VL: DIQMTQSPSTLSASVGDRVTITCRASQSISSWLAWYQQKPGKAPKLLIYKASSLESGVPSRFSGSGSGTEFTLTISSLQPDDFATYYCQHPHSWTFGGGTKVEIK ... binds
